Kindly state pEC50 for each of the entries shown.
biological target: human CYP11B1 (Homo sapiens, UniProt P15538); assay: G-402 cellular enzyme assay, human CYP11B1 (cortisol release, HTRF); settings: G-402 cells, 1 μM Deoxycortisol
One number for each entry, as −log10 of the molar value.

O=C1c2ccc(Cl)cc2CCN1c1cncc(COC2CCCC2)c1 [Example 197] : 6.26

Working through the 3 compounds below one at a time, give pEC50 for each.
1. O=C1c2ccc(Cl)cc2CCN1c1cnccc1C(F)(F)F [Example 22]
2. O=C1c2ccc(Cl)cc2C2(CC2)N1c1cccnc1 [Example 296]
3. O=C1c2ccc(Cl)cc2CCN1c1cncc(CN2CCCC(O)C2)c1 (stereo not shown) [Example 144]

Found:
1. 6.29
2. 5.35
3. 6.85

Could I get pEC50 for every one of these entries?
1. O=C1c2ccc(Cl)cc2CCN1c1cnccc1CO [Example 56]
2. COc1cncc(N2C(=O)c3ccc(Cl)cc3C2(C)C)c1 [Example 130]
3. O=C1c2ccc(Cl)cc2CCN1c1cncc(CN2CCC(F)(F)CC2)c1 [Example 168]
4. Cc1nccn1Cc1cncc(N2Cc3cc(Cl)ccc3C2=O)c1 [Example 111]
5. O=C1c2ccc(Cl)cc2CCN1c1cncc(Cc2cccc(F)c2F)c1 [Example 210]
6. CC[C@@H]1c2cc(Cl)ccc2C(=O)N1c1cncc2c1CC[C@H]2NS(C)(=O)=O (single isomer, unassigned) [Example 369]
7. O=C(c1cncc(N2CCc3cc(Cl)ccc3C2=O)c1)N1CCC(O)C1 (stereo not shown) [Example 40]

Found:
[4.86, 6.62, 7.32, 6.03, 6.89, 4.91, 4.98]

Value sought for every listed compound: pEC50.
1. CC1Cc2cccc(Cl)c2C(=O)N1c1cccnc1 (stereo not shown) [Example 93]
2. CCC(=O)N[C@@H]1CCCc2c1cncc2N1C(=O)c2ccc(Cl)cc2[C@@H]1C (single isomer, unassigned) [Example 359]
3. O=C1c2ccc(Cl)cc2C(C2CC2)N1c1cccnc1 (stereo not shown) [Example 301]
4. O=C1c2ccc(Cl)cc2CCN1c1cncc(Cc2cc(F)cc(F)c2)c1 [Example 211]
5. CN(Cc1cncc(N2C(=O)c3ccc(Cl)cc3C2(C)C)c1)S(C)(=O)=O [Example 392]

Found:
1. 4.85
2. 6.39
3. 4.49
4. 7.27
5. 6.49

====

molecular target: UniProt P19099; test: G-402 cellular enzyme assay, human CYP11B2 (aldosterone release, HTRF); settings: G-402 cells, 1 μM Deoxycorticosterone
Record form. Attribute: EC50. Fill in for each entry.
Give bare numbers, in nM.

Examples with answers:
CC(=O)N[C@@H]1CCCc2c1cncc2N1C(=O)c2ccc(Cl)cc2[C@H]1C1CC1 (single isomer, unassigned) [Example 372] : 100
O=C1CCCCN1Cc1cncc(N2Cc3cc(Cl)ccc3C2=O)c1 [Example 114] : 424
NC1CCCc2c1cncc2N1Cc2cc(Cl)ccc2C1=O (stereo not shown) [Example 311] : 813
CC(C)Oc1cncc(N2CCc3cc(Cl)ccc3C2=O)c1 [Example 11] : 12.7
O=C1c2ccc(Cl)cc2CCN1c1cncc(OC(F)F)c1 [Example 60] : 70.7
CCC1c2ccc(Cl)cc2C(=O)N1c1cncc(F)c1 (single isomer, unassigned) [Example 307] : 389
CC(=O)N[C@H]1CCCc2c1cncc2N1C(=O)c2ccc(Cl)cc2[C@@H]1C (single isomer, unassigned) [Example 365] : 337
CC1(C)c2nc(Cl)ccc2C(=O)N1c1cncc(F)c1 [Example 292] : 515

I have 5 compounds here; please give me EC50 for each one.
1. CCC1c2cc(Cl)ccc2C(=O)N1c1cnccc1Cl (stereo not shown) [Example 284]
2. O=C1c2ccc(Cl)cc2CCN1c1cncc(Cc2cc(Cl)ccc2Cl)c1 [Example 217]
3. CCS(=O)(=O)Nc1cncc(N2CCc3cc(Cl)ccc3C2=O)c1 [Example 218]
4. CC[C@@H]1c2cc(Cl)ccc2C(=O)N1c1cncc2c1CC[C@H]2NC(C)=O (single isomer, unassigned) [Example 344]
5. O=C1c2ccc(Cl)cc2CCN1c1cncc(-c2cnoc2)c1 [Example 243]

Found:
20.5
92
1550
31.2
268

====

biological target: human CYP11B2 (Homo sapiens); assay: G-402 cellular enzyme assay, human CYP11B2 (aldosterone release, HTRF); conditions: G-402 cells, 1 μM Deoxycorticosterone
Sequence (P19099 25-503): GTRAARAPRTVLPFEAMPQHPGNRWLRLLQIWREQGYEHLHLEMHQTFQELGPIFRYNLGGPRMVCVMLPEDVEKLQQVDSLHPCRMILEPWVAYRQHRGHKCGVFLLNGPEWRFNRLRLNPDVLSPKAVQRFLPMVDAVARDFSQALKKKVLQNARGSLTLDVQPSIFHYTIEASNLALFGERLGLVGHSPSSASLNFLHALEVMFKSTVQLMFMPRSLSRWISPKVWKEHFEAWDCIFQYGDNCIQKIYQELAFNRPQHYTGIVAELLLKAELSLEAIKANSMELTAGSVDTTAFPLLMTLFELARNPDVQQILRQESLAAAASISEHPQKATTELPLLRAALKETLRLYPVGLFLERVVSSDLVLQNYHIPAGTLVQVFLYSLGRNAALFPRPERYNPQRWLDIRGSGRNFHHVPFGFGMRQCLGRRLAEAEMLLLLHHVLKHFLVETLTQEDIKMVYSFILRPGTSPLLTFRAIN
Provide the recorded EC50 for the entries that follow.
Numbers only, in nM.

CC(OCc1cncc(N2CCc3cc(Cl)ccc3C2=O)c1)C(F)(F)F (stereo not shown) : 37.3
CS(=O)(=O)NC1CCc2c1cncc2N1Cc2cc(Cl)ccc2C1=O (single isomer, unassigned) [Example 335] : 13800
O=C1c2ccc(Cl)cc2CCN1c1cncc(CN2CCC[C@@H]2CO)c1 : 227
CCS(=O)(=O)N1CCC(Oc2cncc(N3C(=O)c4ccc(Cl)cc4C3(C)C)c2)C1 (stereo not shown) : 185
COc1cncc(N2C(=O)c3ccc(Cl)cc3C2C)c1 (stereo not shown) : 24.7

Switching to the query record.
Lookup: Give EC50 (human CYP11B2 (Homo sapiens)) of the following compound: CN1CCN(Cc2cncc(N3CCc4cc(Cl)ccc4C3=O)c2)CC1
Found: 47.9

====

target: UniProt:P19099; assay: G-402 cellular enzyme assay, human CYP11B2 (aldosterone release, HTRF); details: G-402 cells, 1 μM Deoxycorticosterone
pEC50: −log10 of the molar value.
Class (required): determined from pEC50; valid ranges are low: < 7; mid: ≥ 7 and < 8; high: ≥ 8

Would you please look over these solved cases?
CC(=O)N1CCC(Oc2cncc(N3C(=O)c4ccc(Cl)cc4C3(C)C)c2)CC1 : high
CN(C)C(=O)COc1cncc(N2CCc3cc(Cl)ccc3C2=O)c1 : low
COC(=O)COc1cncc(N2CCc3cc(Cl)ccc3C2=O)c1 : low
CCS(=O)(=O)NC1CCCc2c1cncc2N1Cc2cc(Cl)ccc2C1=O (single isomer, unassigned; (+)) [Example 316] : mid

Lookup: Would you mind sorting CN1CCN(Cc2ccncc2N2CCc3cc(Cl)ccc3C2=O)CC1 into the appropriate category?
Found: low

Lookup: // same read-out, input: CC1(C)c2cc(Cl)ccc2C(=O)N1c1cncc(N2CCN(C(=O)c3ncccc3Cl)CC2)c1
Found: high

Lookup: Now this one: CCc1nc(C)cn1Cc1cncc(N2CCc3cc(Cl)ccc3C2=O)c1
Found: low

Lookup: What do we get for O=C(Nc1cncc(N2CCc3cc(Cl)ccc3C2=O)c1)Nc1cccc(C(F)(F)F)c1 ?
Found: low

Lookup: Further, for CC[C@H]1c2cc(Cl)ccc2C(=O)N1c1cncc2c1CCC[C@H]2NS(C)(=O)=O (single isomer, unassigned) ?
Found: mid

Lookup: Also, CC(O)c1cncc(N2C(=O)c3ccc(Cl)cc3C2C)c1 (stereo not shown) please.
Found: mid

Lookup: Entry CC[C@@H]1c2cc(Cl)ccc2C(=O)N1c1cncc2c1CCC[C@H]2NC(C)=O (single isomer, unassigned) please
Found: high

Lookup: Would you kindly repeat that for O=C1c2ccc(Cl)cc2CCN1c1cncc(Cc2cc(F)cc(F)c2)c1 ?
Found: high

Lookup: Now consider O=C1c2ccc(Cl)cc2CCN1c1cncc(Cc2ccc(Cl)c(Cl)c2)c1 .
Found: mid

====

Target: human CYP11B1 (Homo sapiens, UniProt P15538)
Sequence (P15538 25-503): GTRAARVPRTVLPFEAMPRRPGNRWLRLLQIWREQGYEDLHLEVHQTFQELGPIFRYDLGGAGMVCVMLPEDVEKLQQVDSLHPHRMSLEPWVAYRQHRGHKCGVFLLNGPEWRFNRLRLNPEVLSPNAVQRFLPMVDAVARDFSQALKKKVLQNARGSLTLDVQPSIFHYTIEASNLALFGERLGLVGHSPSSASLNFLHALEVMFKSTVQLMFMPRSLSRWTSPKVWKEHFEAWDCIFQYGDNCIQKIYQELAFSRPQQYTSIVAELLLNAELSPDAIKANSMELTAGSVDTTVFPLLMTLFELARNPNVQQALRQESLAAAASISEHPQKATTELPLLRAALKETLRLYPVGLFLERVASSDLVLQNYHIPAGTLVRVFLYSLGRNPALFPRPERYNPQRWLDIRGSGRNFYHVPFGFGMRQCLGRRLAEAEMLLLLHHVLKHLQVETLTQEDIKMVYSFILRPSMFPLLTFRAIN
Assay: G-402 cellular enzyme assay, human CYP11B1 (cortisol release, HTRF)
Conditions: G-402 cells, 1 μM Deoxycortisol
pEC50: −log10 of the molar value.
Classify by measured pEC50: t if it is equal to or exceeds 5, f if it is smaller.

Cc1nccn1Cc1cncc(N2C(=O)c3ccc(Cl)cc3C2(C)C)c1 [Example 134] : t
O=C1c2ccc(Cl)cc2CCN1c1cncc(OC(F)F)c1 [Example 60] : t
CC1(C)c2cc(Cl)ccc2C(=O)N1c1cncc(N2CCN(C(=O)c3ncccc3Cl)CC2)c1 [Example 459] : t

Lookup: Tell me whether pEC50 is at least 5 here: Cn1cnnc1Cc1cncc(N2CCc3cc(Cl)ccc3C2=O)c1 [Example 268]
Found: f

Lookup: Field entry: CC1(C)c2ccc(F)cc2C(=O)N1c1cncc(CNS(C)(=O)=O)c1 [Example 406]
Found: t
